Test: Acute toxicity (Litchfield and Wilcoxon)
Conditions: rat, in vivo; oral route, male rats; read-out: toxicity DL50
measuredAttribute: LD50
# do not omit the unit; it follows the number

Recorded LD50 (molecule "COc1ccc(CCN(C)CCc2ccc(OC)c(OC)c2)cc1OC" ): 178 mg/kg

###

Target: phosphodiesterase
Assay: Inhibition of the phosphodiesterase activity (method of K. G. Nair)
Settings: read-out: ID50 (inhibiting dose 50%); up to 10 mM
measuredAttribute: IC50 (µM)
# number only, unit µM dropped from output

Entry "COc1ccc(Cc2nccc3cc(OC)c(OC)cc23)cc1OC" , IC50 reported as 40
